System Tested: T1, Flag-tagged human NgR (human, UniProt Q9BZR6 27-447)
T1 construct: Nogo-66 receptor (NgR), human; Printed both as Flag-hNgR and as NgR-Flag; also called Flag-hNgR; NgR-Flag; source: HEK293, transfected, in lysate
T1 sequence (looked up): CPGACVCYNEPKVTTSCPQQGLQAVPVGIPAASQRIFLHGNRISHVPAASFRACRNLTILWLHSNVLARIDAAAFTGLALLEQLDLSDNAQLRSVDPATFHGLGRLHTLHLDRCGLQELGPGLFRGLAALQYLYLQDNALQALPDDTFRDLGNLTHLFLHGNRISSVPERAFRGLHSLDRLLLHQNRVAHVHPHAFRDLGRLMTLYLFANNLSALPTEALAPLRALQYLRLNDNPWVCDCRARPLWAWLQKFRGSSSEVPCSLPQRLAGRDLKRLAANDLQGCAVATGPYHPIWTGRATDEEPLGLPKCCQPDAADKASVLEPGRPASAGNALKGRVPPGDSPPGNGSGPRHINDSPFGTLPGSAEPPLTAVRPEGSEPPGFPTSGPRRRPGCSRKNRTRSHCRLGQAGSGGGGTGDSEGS
Assay Remarks: co-IP; HEK293 co-transfected with wild-type or mutant p75 and Flag-tagged NgR; p75 co-immunoprecipitated with NgR; blots quantified, wild type = 100%
Experimental Setup: partners not purified
Each entry below carries its recorded percent co-immunoprecipitated with NgR (WT, 100%).
Assay Metric: percent co-immunoprecipitated with NgR (WT, 100%)

binder="p75 E377R (full-length) (receptor, UniProt P07174 30-425, looked up, p75 neurotrophin receptor; source: HEK293, transfected, in lysate) KETCSTGLYTHSGECCKACNLGEGVAQPCGANQTVCEPCLDNVTFSDVVSATEPCKPCTECLGLQSMSAPCVEADDAVCRCAYGYYQDEETGHCEACSVCEVGSGLVFSCQDKQNTVCEECPEGTYSDEANHVDPCLPCTVCEDTERQLRECTPWADAECEEIPGRWIPRSTPPEGSDSTAPSTQEPEVPPEQDLVPSTVADMVTTVMGSSQPVVTRGTTDNLIPVYCSILAAVVVGLVAYIAFKRWNSCKQNKQGANSRPVNQTPPPEGEKLHSDSGISVDSQSLHDQQTHTQTASGQALKGDGNLYSSLPLTKREEVEKLLNGDTWRHLAGELGYQPEHIDSFTHRACPVRALLASWGAQDSATLDALLAALRRIQRADIVESLCSESTATSPV" value_reported=27.4
binder="p75 H376E (full-length) (receptor, UniProt P07174 30-425, looked up, p75 neurotrophin receptor; source: HEK293, transfected, in lysate) KETCSTGLYTHSGECCKACNLGEGVAQPCGANQTVCEPCLDNVTFSDVVSATEPCKPCTECLGLQSMSAPCVEADDAVCRCAYGYYQDEETGHCEACSVCEVGSGLVFSCQDKQNTVCEECPEGTYSDEANHVDPCLPCTVCEDTERQLRECTPWADAECEEIPGRWIPRSTPPEGSDSTAPSTQEPEVPPEQDLVPSTVADMVTTVMGSSQPVVTRGTTDNLIPVYCSILAAVVVGLVAYIAFKRWNSCKQNKQGANSRPVNQTPPPEGEKLHSDSGISVDSQSLHDQQTHTQTASGQALKGDGNLYSSLPLTKREEVEKLLNGDTWRHLAGELGYQPEHIDSFTEEACPVRALLASWGAQDSATLDALLAALRRIQRADIVESLCSESTATSPV" value_reported=125
binder="p75-C257A (full-length) (receptor, UniProt P07174 30-425, looked up, p75 neurotrophin receptor; also called p75 TM domain mutant; source: HEK293, transfected, in lysate) KETCSTGLYTHSGECCKACNLGEGVAQPCGANQTVCEPCLDNVTFSDVVSATEPCKPCTECLGLQSMSAPCVEADDAVCRCAYGYYQDEETGHCEACSVCEVGSGLVFSCQDKQNTVCEECPEGTYSDEANHVDPCLPCTVCEDTERQLRECTPWADAECEEIPGRWIPRSTPPEGSDSTAPSTQEPEVPPEQDLVPSTVADMVTTVMGSSQPVVTRGTTDNLIPVYASILAAVVVGLVAYIAFKRWNSCKQNKQGANSRPVNQTPPPEGEKLHSDSGISVDSQSLHDQQTHTQTASGQALKGDGNLYSSLPLTKREEVEKLLNGDTWRHLAGELGYQPEHIDSFTHEACPVRALLASWGAQDSATLDALLAALRRIQRADIVESLCSESTATSPV" value_reported=17.7
binder="p75 D372R (full-length) (receptor, UniProt P07174 30-425, looked up, p75 neurotrophin receptor; source: HEK293, transfected, in lysate) KETCSTGLYTHSGECCKACNLGEGVAQPCGANQTVCEPCLDNVTFSDVVSATEPCKPCTECLGLQSMSAPCVEADDAVCRCAYGYYQDEETGHCEACSVCEVGSGLVFSCQDKQNTVCEECPEGTYSDEANHVDPCLPCTVCEDTERQLRECTPWADAECEEIPGRWIPRSTPPEGSDSTAPSTQEPEVPPEQDLVPSTVADMVTTVMGSSQPVVTRGTTDNLIPVYCSILAAVVVGLVAYIAFKRWNSCKQNKQGANSRPVNQTPPPEGEKLHSDSGISVDSQSLHDQQTHTQTASGQALKGDGNLYSSLPLTKREEVEKLLNGDTWRHLAGELGYQPEHIRSFTHEACPVRALLASWGAQDSATLDALLAALRRIQRADIVESLCSESTATSPV" value_reported=61.8

Data provenance is paper PMC4122344.
